# Efficacy values compiled below
- target-entity: Thrombopoietin receptor (Homo sapiens)
- protocol-details: Agonist activity at human thrombopoietin receptor expressed in mouse Ba/F3 cells by kinase activation based reporter gene assay relative to 30 ng/mL thrombopoietin
- Assay type: functional, cell-based
- stated-conditions: BaF3
Give the value in % but do not write % after it.

Consider the following illustrative entries.
INSERT INTO assay_data (compound_structure, obs_value) VALUES
  ('CCCCc1ccc(-c2ccc3cc(-c4ccc(C(=O)O)cc4)[nH]c3c2F)cc1', 112),
  ('CCCCc1ccc(-c2ccc3c4c([nH]c3c2)-c2ccc(C(N)=O)cc2C4)cc1', 118);

### Prompt Check Thrombopoietin receptor (Homo sapiens) data and give Efficacy for CCCCc1ccc(-c2ccc3c4c([nH]c3c2)-c2ccc(C(=O)O)cc2S(=O)(=O)C4)cc1 .
### Response 115

### Prompt Check Thrombopoietin receptor (Homo sapiens) data and give Efficacy for CCCCc1ccc(-c2ccc3nc(-c4ccc(C(=O)O)c(O)c4)[nH]c3c2)cc1 .
### Response 121

====

- target-entity: Thrombopoietin receptor (Homo sapiens, UniProt P40238)
- protocol-details: Agonist activity at human thrombopoietin receptor expressed in mouse Ba/F3 cells by kinase activation based reporter gene assay
- Format: functional, cell-based, BaF3
measured-attribute: pEC50
// returns pEC50 (minus log10 of molar concentration), number only

Consider the following illustrative entries.
INSERT INTO results (compound_structure, obs_value) VALUES
  ('CCCCc1ccc(-c2ccc3c4c([nH]c3c2)-c2ccc(C(=O)O)cc2C4)cc1', 6.80),
  ('CC1=NN(c2ccc(C)c(C)c2)C(=O)/C1=N\Nc1cccc(-c2cccc(C(=O)O)c2)c1O', 7.42),
  ('CCCCc1ccc(-c2ccc3c4c([nH]c3c2F)-c2ccc(NC(C)=O)cc2C4)cc1', 7.60),
  ('CCCCc1ccc(-c2ccc3c4c([nH]c3c2)-c2ccc(C(=O)O)cc2S(=O)(=O)C4)cc1', 6.35),
  ('CCCCc1ccc(-c2ccc3cc(-c4ccc(C(=O)O)cc4)[nH]c3c2F)cc1', 6.93);

### Prompt Answer with the recorded pEC50 for the molecule listed here: CCCCc1ccc(-c2ccc3c(CC)c(-c4ccc(C(=O)O)c(O)c4)[nH]c3c2F)cc1
### Response 6.64

====

# Efficacy values compiled below
- target-entity: Thrombopoietin receptor (Homo sapiens) (UniProt P40238)
- Sequence (whole entry): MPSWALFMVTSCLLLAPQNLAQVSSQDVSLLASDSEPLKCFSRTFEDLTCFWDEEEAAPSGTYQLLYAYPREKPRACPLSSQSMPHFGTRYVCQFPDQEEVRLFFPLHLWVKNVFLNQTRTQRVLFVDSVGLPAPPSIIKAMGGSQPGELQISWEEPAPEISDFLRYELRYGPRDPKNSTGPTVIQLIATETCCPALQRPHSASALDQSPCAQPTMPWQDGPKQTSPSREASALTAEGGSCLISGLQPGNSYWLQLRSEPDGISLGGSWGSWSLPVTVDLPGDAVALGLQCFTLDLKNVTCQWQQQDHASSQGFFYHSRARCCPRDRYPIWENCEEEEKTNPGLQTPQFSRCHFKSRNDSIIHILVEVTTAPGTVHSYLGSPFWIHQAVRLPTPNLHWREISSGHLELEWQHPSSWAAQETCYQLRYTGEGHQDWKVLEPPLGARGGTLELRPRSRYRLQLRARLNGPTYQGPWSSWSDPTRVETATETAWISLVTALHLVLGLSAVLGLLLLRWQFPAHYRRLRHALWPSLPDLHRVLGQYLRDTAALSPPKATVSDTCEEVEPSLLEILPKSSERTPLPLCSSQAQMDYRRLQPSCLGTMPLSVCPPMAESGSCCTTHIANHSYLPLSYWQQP
- protocol-details: Agonist activity at human thrombopoietin receptor expressed in mouse Ba/F3 cells by kinase activation based reporter gene assay relative to 30 ng/mL thrombopoietin
- Format: functional, cell-based
- stated-conditions: BaF3
Give the value in % but do not write % after it.

Consider the following illustrative entries.
INSERT INTO results (molecule, measured_attribute, obs_value) VALUES
  ('CCCCc1ccc(-c2ccc3cc(-c4ccc(C(=O)O)c(O)c4)[nH]c3c2F)cc1', 'Efficacy', 141),
  ('Cc1cc(-c2ccc3c4c([nH]c3c2F)-c2ccc(C(N)=O)cc2COC4=O)ccc1F', 'Efficacy', 0),
  ('Cc1cc(-c2ccc3c4c([nH]c3c2F)-c2ccc(C(N)=O)cc2OC4)ccc1F', 'Efficacy', 83);

### Prompt Answer with the recorded Efficacy for the molecule listed here: CCCCc1ccc(-c2ccc3nc(-c4ccc(C(=O)O)cc4)[nH]c3c2)cc1
### Response 83

### Prompt Answer with the recorded Efficacy for the molecule listed here: CC1=NN(c2ccc(C)c(C)c2)C(=O)/C1=N\Nc1cccc(-c2cccc(C(=O)O)c2)c1O [ELTROMBOPAG]
### Response 127

### Prompt Answer with the recorded Efficacy for the molecule listed here: CCCCc1ccc(-c2ccc3c4c([nH]c3c2F)-c2ccc(NC(C)=O)cc2C4)cc1
### Response 117

### Prompt Answer with the recorded Efficacy for the molecule listed here: CCCCc1ccc(-c2ccc3cc(-c4ccc(C(N)=O)cc4)[nH]c3c2F)cc1
### Response 81

### Prompt Answer with the recorded Efficacy for the molecule listed here: CCCCc1ccc(-c2ccc3c4c([nH]c3c2F)-c2ccc(C(=O)O)cc2C4)cc1
### Response 151
